system: NCI-H226 lung; experiment: NCI tumour cell line growth inhibition, 48 h
Result type: TGI

{"Compound": "COc1ccc2nc3cc(Cl)ccc3c(Nc3ccc(O)c(CN4CCN(C)CC4)c3)c2c1", "Tested system": "NCI-H226 lung", "Value measured": "38.9 µM"}
{"Compound": "Cc1ncc(-c2nnnn2-c2ccccc2)c(C(=O)O)n1", "Tested system": "NCI-H226 lung", "Value measured": "> 100 µM"}
{"Compound": "CCOC(=O)/C(ON)=C(/CC/C(C(=O)OC)=C(\\ON)C(=O)OCC)C(=O)OC", "Tested system": "NCI-H226 lung", "Value measured": "> 100 µM"}
{"Compound": "c1ccc(CSCCNCCN(CCNCCSCc2ccccc2)CCNCCSCc2ccccc2)cc1", "Tested system": "NCI-H226 lung", "Value measured": "3.28 µM"}
{"Compound": "OCCCc1n(Cc2ccc3ccccc3c2)c2ccccc2[n+]1Cc1ccc2ccccc2c1", "Tested system": "NCI-H226 lung", "Value measured": "10.5 µM"}
{"Compound": "Nc1ccn(C2OC(CO)C(O)C2(F)F)c(=O)n1 (centres undefined)", "Tested system": "NCI-H226 lung", "Value measured": "> 100 µM"}
{"Compound": "O=CC12c3ccccc3C(c3ccccc31)C1C(=O)NC(=O)C12 (centres undefined)", "Tested system": "NCI-H226 lung", "Value measured": "> 100 µM"}
{"Compound": "COc1cc2cc(c1Cl)N(C)C(=O)C[C@H](OC(=O)[C@H](C)N(C)C(=O)CCS)C[C@]1(C)O[C@H]1[C@H](C)[C@@H]1C[C@@](O)(NC(=O)O1)[C@H](OC)/C=C/C=C(\\C)C2", "Tested system": "NCI-H226 lung", "Value measured": "> 50 µM"}
{"Compound": "O=c1[nH]nc(Cc2ccccc2)n1/N=C/c1ccc(/C=N/n2c(Cc3ccccc3)n[nH]c2=O)cc1", "Tested system": "NCI-H226 lung", "Value measured": "> 100 µM"}

###

tested on: SW-620 colon; test: NCI tumour cell line growth inhibition, 48 h
Result type: TGI

{"Structure": "Nc1nc(N)c(-c2cccc(C(F)(F)F)c2)c(Cc2cccc(C(F)(F)F)c2)n1", "Value measured": "26.7 µM"}
{"Structure": "Cc1ccc(/C=C2\\COc3ccc(O)c(O)c3C2=O)cc1", "Value measured": "3.11 µM"}
{"Structure": "COC(=O)C1(Cc2ccccc2)Cc2cc3c(cc2C1)CCC3", "Value measured": "> 100 µM"}
{"Structure": "O=[N+]([O-])c1ccc(N/N=C2\\C=CCCC2)c([N+](=O)[O-])c1", "Value measured": "> 100 µM"}
{"Structure": "CC(=O)NNc1nc(C)c(C(=O)NNC(=O)C(=O)Nc2c(C)cccc2C(C)C)s1", "Value measured": "> 100 µM"}

###

system: KM12 colon; test: NCI tumour cell line growth inhibition, 48 h; in the data active means GI50 below about 0.43 µM; inactive means the rest
Outcomes: active, inactive

{"Molecule": "COc1cc2c3c(n(CCCn4ccnc4)c(=O)c2cc1OC)-c1cc2c(cc1C3=O)OCO2", "Discrete label": "active"}
{"Molecule": "COc1cccc(C(=O)c2sc(Nc3ccc(N4CCN(C(C)C)CC4)cc3)nc2N)c1", "Discrete label": "inactive"}
{"Molecule": "Cc1ccc(/C=C2\\COc3ccc(O)c(O)c3C2=O)cc1", "Discrete label": "inactive"}
{"Molecule": "CCO.CCO.Oc1ccc(Nc2ncns2)cc1.Oc1ccc(Nc2ncns2)cc1.[Ti]", "Discrete label": "inactive"}
{"Molecule": "COc1ccc(C(=O)/C=C/c2c(OC)cc(OC)cc2OC)c(OC)c1", "Discrete label": "inactive"}
{"Molecule": "COC1C(O)CC(OC2CC(OC3CC(O[C@@H]4C(=O)c5c(cc6cc(OC7CC(OC8CC(O)C(O)C(C)O8)C(O)C(C)O7)c(C)c(O)c6c5O)CC4[C@H](OC)C(=O)C(C)=O)OC(C)C3O)OC(C)C2O)OC1C (stereo partly specified)", "Discrete label": "active"}
{"Molecule": "Cc1nc2ccc(Nc3nc(Cl)nc(Nc4ccc(F)cc4)n3)cc2n1Cc1ccccc1", "Discrete label": "inactive"}
{"Molecule": "CCOC(=O)c1ccc2c(c1)nc(-c1ccc(Cl)cc1)n2-c1cc(C(C)(C)C)[nH]n1", "Discrete label": "inactive"}
{"Molecule": "C/C(=N\\NC(=O)c1ccc(C(C)(C)C)cc1)c1ccc(O)cc1O", "Discrete label": "inactive"}
{"Molecule": "CCC(=O)O[C@@H]([C@H](C)[C@H]1OC(CC)=C(C)C(=O)[C@@H]1C)[C@@H](C)C(=O)CC", "Discrete label": "inactive"}
{"Molecule": "Cc1ccc(C(=Nc2ccccc2)N=P(c2ccccc2)(c2ccccc2)c2ccccc2)cc1", "Discrete label": "inactive"}
{"Molecule": "COc1ccc([As]=[As]c2ccc(OC)c(NCS(=O)(=O)O)c2)cc1NCS(=O)(=O)O (stereo unspecified)", "Discrete label": "inactive"}
{"Molecule": "CS(=O)(=O)c1ccc(Oc2cc(F)cc(C#N)c2)c2c1[C@H](O)[C@H](F)[C@H]2F", "Discrete label": "inactive"}
{"Molecule": "Cc1cc2c(cc1C)[n+](=O)c(C(=O)C(C)(C)C)c(C(F)(F)F)n2[O-]", "Discrete label": "inactive"}
{"Molecule": "CCOC(=O)C1=C(C)N=C2SC=C(c3ccccc3)N2[C@H]1c1cn[nH]c1-c1ccc(Cl)cc1", "Discrete label": "inactive"}
{"Molecule": "CC12OC(CC(O)C1O)n1c3ccccc3c3c4c(c5c6ccccc6n2c5c31)C(=O)N(CCN1CCCC1)C4=O (stereo unspecified)", "Discrete label": "inactive"}

###

Each entry below carries its reported TGI.
system: UACC-257 melanoma; experiment: NCI tumour cell line growth inhibition, 48 h
Result type: TGI (µM)

{"Molecule": "CC(C)Cc1ccc(C(C)C(=O)NCc2ccc(Cn3c(=O)sn(CCCCl)c3=O)cc2)cc1 (stereo not drawn)", "Result type": "TGI", "Display unit": "µM", "Op": "=", "Value measured": 2.98}
{"Molecule": "O=C(Nc1ccccc1)C(=O)C(C(=O)c1ccccc1F)C1OC(=O)c2ccccc21 (stereo not drawn)", "Result type": "TGI", "Display unit": "µM", "Op": ">", "Value measured": 100}
{"Molecule": "Cc1cc2c(cc1C)[n+](=O)c(C(=O)C(C)(C)C)c(C(F)(F)F)n2[O-]", "Result type": "TGI", "Display unit": "µM", "Op": "=", "Value measured": 41.2}

###

test system: LOX IMVI melanoma; assay: NCI tumour cell line growth inhibition, 48 h
Each entry below carries its reported TGI.

{"Compound": "CN[C@H](C)[C@@H](OC)c1ccccc1", "TGI": "> 100 µM"}
{"Compound": "CC(C)=CC1CC(=O)C1(C)Sc1ccccc1 (stereo unspecified)", "TGI": "36.1 µM"}
{"Compound": "S=c1ncc2n[nH]nc2[nH]1", "TGI": "> 100 µM"}
{"Compound": "Nc1ccn(C2OC(CO)C(O)C2(F)F)c(=O)n1 (stereo unspecified)", "TGI": "> 100 µM"}
{"Compound": "CCC1(CC)C(=O)N(C(=O)c2ccc(C)cc2)N(C(=O)c2ccc(C)cc2)C1=O", "TGI": "> 75 µM"}
{"Compound": "COc1ccc(-c2nn(C(=O)NCCN(C)C)cc2-c2ccncc2)cc1Cl", "TGI": "48.9 µM"}

###

Each entry below carries its reported TGI.
tested on: NCI-H226 lung; experiment: NCI tumour cell line growth inhibition, 48 h

{"Compound": "C(=Nc1ccccc1C1SCCCS1)c1ccccc1", "TGI": "> 100 µM"}
{"Compound": "Nc1cc(C(=O)NC2C3CC4CC(C3)CC2C4)[nH]c(=S)n1 (stereo not given)", "TGI": "> 100 µM"}
{"Compound": "CC=C(CBr)CCC(Br)C(C)(C)Cl (mixture of isomers)", "TGI": "> 10 µM"}
{"Compound": "Cc1ccc(N=Nc2c(C)nn(-c3ccccc3)c2-c2ccccc2)c(Br)c1", "TGI": "> 100 µM"}
{"Compound": "O=C(Nn1cc(F)c(=O)[nH]c1=O)C12CC3CC(CC(C3)C1)C2", "TGI": "> 100 µM"}

###

test system: SF-295 CNS; assay: NCI tumour cell line growth inhibition, 48 h; in the data active means GI50 below about 0.43 µM; inactive means the rest
Outcomes: active, inactive

{"Compound": "COc1cc2c3c(n(CCCn4ccnc4)c(=O)c2cc1OC)-c1cc2c(cc1C3=O)OCO2", "Discrete label": "active"}
{"Compound": "O=C1c2ccccc2C(=O)c2c(Nc3ccc(CCO)cc3)ccc(O)c21", "Discrete label": "inactive"}
{"Compound": "COc1cc2c(cc1OC)[C@@H]1C(=O)c3cc4c(cc3[C@@H]1N(CCN(C)C)C2=O)OCO4", "Discrete label": "active"}
{"Compound": "O=C(c1ccccc1)c1c(C(F)(F)F)n([O-])c2ccc(F)cc2[n+]1=O", "Discrete label": "inactive"}
{"Compound": "Cc1ccc(/C=C2\\COc3ccc(O)c(O)c3C2=O)cc1", "Discrete label": "inactive"}
{"Compound": "COc1cc(C(=O)N2CCN(c3ccccn3)CC2)c(N)cc1OCc1ccccc1", "Discrete label": "inactive"}
{"Compound": "c1ccc(CSCCNCCN(CCNCCSCc2ccccc2)CCNCCSCc2ccccc2)cc1", "Discrete label": "inactive"}
{"Compound": "COc1cc(/C=C2\\CN(S(=O)(=O)c3ccc(C)cc3)C/C(=C\\c3cc(CN4CCOCC4)c(O)c(OC)c3)C2=O)cc(CN2CCOCC2)c1O", "Discrete label": "inactive"}
{"Compound": "CC(C)Cc1ccc(C(C)C(=O)NCc2ccc(Cn3c(=O)sn(CCCCl)c3=O)cc2)cc1 (centres undefined)", "Discrete label": "inactive"}

Data origin: PubChem BioAssay (NCI)
